From: patent US20180362473A1

# Tested on: pancreatic BxPC-3 cells
# assay.overview: PrestoBlue cell viability assay, 5 days treatment
# Format: cell-based
# condition.notes: Homo sapiens, 120 h; BxPC-3, 5 days incubation, PrestoBlue; read-out: EC50
property.label: EC50
Respond with the figure and its unit, in that order.

Q: // fetch EC50 given entry `O=c1[nH]cc(F)c(=O)[nH]1`
Ans: 136 nM
